Test: Permeability of the compound at 100 ug/ml after 18 hrs by PAMPA
Format: physicochemical
Settings: read-out: permeability

COMPOUND_STRING	Papp at 18 h, 100 ug/ml / ×10⁻⁶ cm/s
CCN(CCCCCCOc1cc(O)c2c(=O)c3ccccc3sc2c1)Cc1ccccc1N(C)C	3.49
CCN(CCCCCCOc1cc(O)c2c(=O)c3ccccc3sc2c1)Cc1ccccc1	4.12

----------
Listed here: items and their measured Activity.
Experiment: Antioxidant activity assessed as trolox equivalent of AAPH-induced radical scavenging activity at 5 uM incubated for 15 mins prior to APPH challenge measured every minute for 90 mins by ORAC-FL assay
Format: functional

COMPOUND_STRING	Activity [µMequiv/µM]
COc1ccccc1CN(C)CCCOc1cc(O)c2c(=O)c3ccccc3sc2c1	0.22
CCN(CCCCOc1ccc(-c2coc3cc(OCCCCN(CC)Cc4ccccc4OC)cc(O)c3c2=O)cc1)Cc1ccccc1OC	0.3
CCN(CCCCOc1cc(O)c2c(=O)c3ccccc3sc2c1)Cc1ccccc1OC	0.57
CCN(CCCOc1cc(O)c2c(=O)c3ccccc3sc2c1)Cc1ccccc1N(C)C	0.35
COc1ccccc1CN(C)CCCCOc1cc(O)c2c(=O)c3ccccc3sc2c1	1.04

----------
Test: Antioxidant activity assessed as trolox equivalent of AAPH-induced radical scavenging activity at 5 uM incubated for 15 mins prior to APPH challenge measured every minute for 90 mins by ORAC-FL assay
Type: functional

COMPOUND_STRING	SCALE_UNIT	Activity
COc1ccccc1CN(C)CCCCCCOc1cc(O)c2c(=O)c3ccccc3sc2c1	µMequiv/µM	0.66
CN(CCCCOc1cc(O)c2c(=O)c3ccccc3sc2c1)Cc1ccccc1	µMequiv/µM	1.18
O=c1c2ccccc2sc2cc(O)cc(O)c12	µMequiv/µM	0.42
CCN(CCCCCCOc1cc(O)c2c(=O)c3ccccc3sc2c1)Cc1ccccc1	µMequiv/µM	0.17
CCN(CCCCCCOc1cc(O)c2c(=O)c3ccccc3sc2c1)Cc1ccccc1OC	µMequiv/µM	0.83
CCN(CCCCOc1cc(O)c2c(=O)c3ccccc3sc2c1)Cc1ccc(N(C)C)cc1	µMequiv/µM	1.5
CCN(CCCOc1cc(O)c2c(=O)c3ccccc3sc2c1)Cc1ccccc1OC	µMequiv/µM	0.68
CCN(CCCOc1cc(O)c2c(=O)c3ccccc3sc2c1)Cc1ccccc1	µMequiv/µM	0.59
CCN(CCCCOc1cc(O)c2c(=O)c3ccccc3sc2c1)Cc1ccccc1	µMequiv/µM	1
CCN(CCCCCCOc1cc(O)c2c(=O)c3ccccc3sc2c1)Cc1ccccc1N(C)C	µMequiv/µM	0.74
CCN(CCCCOc1cc(O)c2c(=O)c3ccccc3sc2c1)Cc1ccccc1N(C)C	µMequiv/µM	0.95
CCN(CCCCCCOc1cc(O)c2c(=O)c3ccccc3sc2c1)Cc1ccc(N(C)C)cc1	µMequiv/µM	1.37
CN(CCCCCCOc1cc(O)c2c(=O)c3ccccc3sc2c1)Cc1ccccc1	µMequiv/µM	0.37
COc1cc(/C=C/C(=O)CC(=O)/C=C/c2ccc(O)c(OC)c2)ccc1O	µMequiv/µM	2.43
CN(CCCOc1cc(O)c2c(=O)c3ccccc3sc2c1)Cc1ccccc1	µMequiv/µM	0.48
CCN(CCCOc1cc(O)c2c(=O)c3ccccc3sc2c1)Cc1ccc(N(C)C)cc1	µMequiv/µM	1.38

----------
Biological target: Amyloid-beta precursor protein (Homo sapiens) (UniProt P05067)
Sequence (P05067 whole entry): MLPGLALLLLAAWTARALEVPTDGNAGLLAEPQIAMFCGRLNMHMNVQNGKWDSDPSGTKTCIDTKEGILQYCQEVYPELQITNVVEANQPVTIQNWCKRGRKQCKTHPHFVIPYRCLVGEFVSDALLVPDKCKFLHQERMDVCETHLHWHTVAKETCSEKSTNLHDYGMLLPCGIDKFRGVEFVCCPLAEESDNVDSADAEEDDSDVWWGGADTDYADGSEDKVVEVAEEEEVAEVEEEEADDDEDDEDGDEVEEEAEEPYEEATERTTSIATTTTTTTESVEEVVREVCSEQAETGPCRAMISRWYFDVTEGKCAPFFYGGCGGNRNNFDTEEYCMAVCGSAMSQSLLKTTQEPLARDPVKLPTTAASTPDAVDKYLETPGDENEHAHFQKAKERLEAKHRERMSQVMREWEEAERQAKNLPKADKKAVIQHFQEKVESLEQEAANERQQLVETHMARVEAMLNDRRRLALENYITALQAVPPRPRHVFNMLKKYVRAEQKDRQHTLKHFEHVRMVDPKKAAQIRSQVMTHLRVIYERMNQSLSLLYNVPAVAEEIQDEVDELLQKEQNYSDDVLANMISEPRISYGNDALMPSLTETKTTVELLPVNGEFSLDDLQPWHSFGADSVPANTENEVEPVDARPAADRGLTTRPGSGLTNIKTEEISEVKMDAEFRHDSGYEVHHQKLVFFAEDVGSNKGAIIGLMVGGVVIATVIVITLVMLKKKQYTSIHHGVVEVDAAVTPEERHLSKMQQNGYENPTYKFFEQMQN
Test: Inhibition of self-induced amyloid beta (1 to 42) (unknown origin) aggregation at 25 uM measured after 24 hrs by ThT fluorescence assay relative to control
Response key: fulfilled means inhibition >= 60%; not fulfilled means inhibition < 60%.

COMPOUND_STRING	CAT
CCN(CCCCOc1cc(O)c2c(=O)c3ccccc3sc2c1)Cc1ccc(N(C)C)cc1	fulfilled
CCN(CCCCOc1cc(O)c2c(=O)c3ccccc3sc2c1)Cc1ccccc1N(C)C	fulfilled
CN(CCCCOc1cc(O)c2c(=O)c3ccccc3sc2c1)Cc1ccccc1	fulfilled
CCN(CCCCCCOc1cc(O)c2c(=O)c3ccccc3sc2c1)Cc1ccccc1N(C)C	fulfilled
CCN(CCCOc1cc(O)c2c(=O)c3ccccc3sc2c1)Cc1ccc(N(C)C)cc1	fulfilled
O=c1c2ccccc2sc2cc(O)cc(O)c12	not fulfilled
COc1ccccc1CN(C)CCCCOc1cc(O)c2c(=O)c3ccccc3sc2c1	fulfilled
COc1ccccc1CN(C)CCCOc1cc(O)c2c(=O)c3ccccc3sc2c1	not fulfilled
CCN(CCCCCCOc1cc(O)c2c(=O)c3ccccc3sc2c1)Cc1ccccc1	not fulfilled
CN(CCCCCCOc1cc(O)c2c(=O)c3ccccc3sc2c1)Cc1ccccc1	not fulfilled
COc1ccccc1CN(C)CCCCCCOc1cc(O)c2c(=O)c3ccccc3sc2c1	fulfilled
CCN(CCCCCCOc1cc(O)c2c(=O)c3ccccc3sc2c1)Cc1ccccc1OC	fulfilled
CCN(CCCOc1cc(O)c2c(=O)c3ccccc3sc2c1)Cc1ccccc1N(C)C	not fulfilled
CCN(CCCCOc1cc(O)c2c(=O)c3ccccc3sc2c1)Cc1ccccc1	fulfilled

----------
Target: UniProt O42275
Sequence (O42275 whole entry): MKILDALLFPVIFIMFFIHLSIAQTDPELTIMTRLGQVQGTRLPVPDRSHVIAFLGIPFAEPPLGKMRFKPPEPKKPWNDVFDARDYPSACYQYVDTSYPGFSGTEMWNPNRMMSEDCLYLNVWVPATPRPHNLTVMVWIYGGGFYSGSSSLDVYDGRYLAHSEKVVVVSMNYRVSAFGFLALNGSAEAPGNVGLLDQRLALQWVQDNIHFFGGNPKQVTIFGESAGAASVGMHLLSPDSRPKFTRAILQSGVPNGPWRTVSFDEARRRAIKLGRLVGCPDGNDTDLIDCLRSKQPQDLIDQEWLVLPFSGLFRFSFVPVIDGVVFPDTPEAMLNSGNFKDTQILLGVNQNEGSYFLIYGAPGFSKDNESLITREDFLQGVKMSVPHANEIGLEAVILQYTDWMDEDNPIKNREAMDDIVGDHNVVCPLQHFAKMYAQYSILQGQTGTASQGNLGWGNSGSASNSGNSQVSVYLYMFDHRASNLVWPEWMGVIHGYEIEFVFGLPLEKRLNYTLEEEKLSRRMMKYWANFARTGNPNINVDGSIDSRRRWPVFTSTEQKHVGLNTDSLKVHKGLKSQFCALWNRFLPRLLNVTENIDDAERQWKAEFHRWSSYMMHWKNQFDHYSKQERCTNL
Listed here: items and their measured IC50.

COMPOUND_STRING	IC50, µM
CCN(CCCCOc1cc(O)c2c(=O)c3ccccc3sc2c1)Cc1ccccc1N(C)C	2.88
CCN(CCCOc1cc(O)c2c(=O)c3ccccc3sc2c1)Cc1ccccc1N(C)C	0.25
CCN(CCCCCCOc1cc(O)c2c(=O)c3ccccc3sc2c1)Cc1ccccc1N(C)C	0.59
COc1ccccc1CN(C)CCCCCCOc1cc(O)c2c(=O)c3ccccc3sc2c1	4.28
CCN(CCCCOc1cc(O)c2c(=O)c3ccccc3sc2c1)Cc1ccccc1	22
O=c1c2ccccc2sc2cc(O)cc(O)c12	38.9
CN(CCCCOc1cc(O)c2c(=O)c3ccccc3sc2c1)Cc1ccccc1	12.4
CN(CCCCCCOc1cc(O)c2c(=O)c3ccccc3sc2c1)Cc1ccccc1	0.32
COc1ccccc1CN(C)CCCCOc1cc(O)c2c(=O)c3ccccc3sc2c1	9.16
CN(CCCOc1cc(O)c2c(=O)c3ccccc3sc2c1)Cc1ccccc1	11.2
CCN(CCCCCCOc1cc(O)c2c(=O)c3ccccc3sc2c1)Cc1ccc(N(C)C)cc1	33.8
CCN(CCCCOc1cc(O)c2c(=O)c3ccccc3sc2c1)Cc1ccc(N(C)C)cc1	25.4
CCN(CCCCCCOc1cc(O)c2c(=O)c3ccccc3sc2c1)Cc1ccccc1	0.58
CCN(CCCOc1cc(O)c2c(=O)c3ccccc3sc2c1)Cc1ccccc1OC	2.79
CCN(CCCCOc1cc(O)c2c(=O)c3ccccc3sc2c1)Cc1ccccc1OC	15.5
COc1ccccc1CN(C)CCCOc1cc(O)c2c(=O)c3ccccc3sc2c1	28.7
CCN(CCCCCCOc1cc(O)c2c(=O)c3ccccc3sc2c1)Cc1ccccc1OC	11.5
CCN(CCCOc1cc(O)c2c(=O)c3ccccc3sc2c1)Cc1ccc(N(C)C)cc1	17.7
CCN(CCCOc1cc(O)c2c(=O)c3ccccc3sc2c1)Cc1ccccc1	18.4

----------
Test: Inhibition of rat serum BuChE using S-butylthiocholine iodide as substrate measured after 15 mins by Ellman's method
pIC50: −log10 of the molar value.

COMPOUND	pIC50
COc1cc2c(cc1OC)C(=O)C(CC1CCN(Cc3ccccc3)CC1)C2 (stereo unspecified) [DONEPEZIL]	4.67

----------
Test system: BuChE (butyrylcholinesterase)
Assay: Inhibition of rat serum BuChE at 50 uM using S-butylthiocholine iodide as substrate measured after 15 mins by Ellman's method relative to control
Details: probe S-butylthiocholine iodide

COMPOUND_STRING	LIMIT_OPERATOR	inhibition at 0.25 h, 50 µM / %
CN(CCCCCCOc1cc(O)c2c(=O)c3ccccc3sc2c1)Cc1ccccc1	<	5
CCN(CCCCOc1cc(O)c2c(=O)c3ccccc3sc2c1)Cc1ccc(N(C)C)cc1	=	7.15
CCN(CCCCOc1cc(O)c2c(=O)c3ccccc3sc2c1)Cc1ccccc1	<	5
CCN(CCCOc1cc(O)c2c(=O)c3ccccc3sc2c1)Cc1ccccc1	=	31.8
COc1ccccc1CN(C)CCCCCCOc1cc(O)c2c(=O)c3ccccc3sc2c1	=	14.9
CN(CCCCOc1cc(O)c2c(=O)c3ccccc3sc2c1)Cc1ccccc1	<	5
CCN(CCCCOc1cc(O)c2c(=O)c3ccccc3sc2c1)Cc1ccccc1N(C)C	=	30.3
CCN(CCCCCCOc1cc(O)c2c(=O)c3ccccc3sc2c1)Cc1ccc(N(C)C)cc1	<	5
CCN(CCCCCCOc1cc(O)c2c(=O)c3ccccc3sc2c1)Cc1ccccc1OC	=	13.9
CCN(CCCCCCOc1cc(O)c2c(=O)c3ccccc3sc2c1)Cc1ccccc1	=	8.83

----------
Experiment: Inhibition of cupric ion-mediated amyloid beta (1 to 42) aggregation at 25 uM measured after 24 hrs by ThT fluorescence assay relative to control

COMPOUND_STRING	inhibition, %
CCN(CCCCOc1cc(O)c2c(=O)c3ccccc3sc2c1)Cc1ccccc1N(C)C	82.1
CN(CCCCOc1cc(O)c2c(=O)c3ccccc3sc2c1)Cc1ccccc1	88.6
COc1ccccc1CN(C)CCCCOc1cc(O)c2c(=O)c3ccccc3sc2c1	88
CN(CCCCCCOc1cc(O)c2c(=O)c3ccccc3sc2c1)Cc1ccccc1	76.8
CCN(CCCCCCOc1cc(O)c2c(=O)c3ccccc3sc2c1)Cc1ccc(N(C)C)cc1	91.3
